Reference source: patent USRE48461E1

- Tested on: total AR mRNA
- assaySummary: Total (full-length) AR mRNA in C4-2B MR cells, free uptake
- Type: cell-based, human
- conditionSummary: 5.00 μM, free uptake, 24 hrs
Oligonucleotides are written 5' to 3', each unit as a sugar letter and its base; * is a phosphorothioate linkage, no mark a phosphodiester; rarer units and linkages stand in square brackets, end groups in braces. Plain capitals give the bases only. e = 2'-O-(2-methoxyethyl) (MOE); l = locked nucleic acid (LNA); k = constrained ethyl (cEt); [5mC] = 5-methylcytosine; d = 2'-deoxy (DNA)
Overview of reported Percent inhibition of full-length AR mRNA in C4-2B MR cells across a group of substances:
Quick note: number first, unit second.

[
  {
    "substance": "347526 (TCTTATGTTTCCGAACCGTT; sugars from the 5' end e5 d10 e5, backbone and methylation of C not given here) [compound 347526]",
    "assayValue": "17%"
  },
  {
    "substance": "549434 (k[5mC]*kT*kA*dA*dA*d[5mC]*dT*dT*d[5mC]*d[5mC]*d[5mC]*dG*dT*kG*kG*k[5mC]) [compound 549434]",
    "assayValue": "88%"
  },
  {
    "substance": "549372 (kA*kA*kG*dT*dT*dG*dT*dA*dG*dT*dA*dG*dT*k[5mC]*kG*k[5mC]) [compound 549372]",
    "assayValue": "91%"
  },
  {
    "substance": "549458 (kG*kT*kT*dG*dA*dT*dT*dT*dA*dA*dT*dG*dG*kT*kT*kG) [compound 549458]",
    "assayValue": "97%"
  }
]

Lab note: next substance to report on.
In: What is its Percent inhibition of full-length AR mRNA in C4-2B MR cells for total AR mRNA? Entry: 554221 (ACCAAGTTTCTTCAGC; sugars from the 5' end l3 d10 l3, all phosphorothioate, methylation of C not given here) [compound 554221]
Out: 23%
